Reference for the values: patent US6265603A

assay system: FTase (Homo sapiens, UniProt P49354+P49356)
assay summary: In vitro inhibition of FTase-mediated prenylation (recombinant FTase, recombinant H-ras, [3H] farnesylpyrophosphate)
condition context: 15 min, 37° C.; 3 μM recombinant H-ras, 440 nM [3H] farnesylpyrophosphate
pIC50: −log10 of the molar value.
property label: pIC50

CSCC[C@H](NC(=O)c1cc(OCC[C@@H](C)CS)ccc1C(C)C)C(=O)O | 6.33
CSCC[C@H](NC(=O)c1cc(OC[C@@H](N)CS)ccc1-c1ccccc1)C(=O)O | 7.82
CSCC[C@H](NC(=O)c1cccc(OC[C@@H](/C=C/[C@@H](N)CS)C(C)C)c1)C(=O)O | 7.52

a: CSCC[C@H](NC(=O)c1cc(OC[C@@H](/C=C/[C@@H](N)CS)C(C)C)ccc1C(C)C)C(=O)O
b: CSCC[C@H](NC(=O)c1cc2ccccc2cc1OC/C=C/[C@@H](N)CS)C(=O)O
c: CSCC[C@H](NC(=O)c1cc(OCC[C@@H](N)CS)ccc1-c1ccccc1)C(=O)O
d: CSCC[C@H](NC(=O)c1cc2ccccc2cc1OC[C@@H](/C=C/[C@@H](N)CS)C(C)C)C(=O)O
e: CSCC[C@H](NC(=O)c1cccc(OC/C=C/[C@@H](N)CS)c1)C(=O)O
Q. Please order the records by their reported pIC50, lowest number first. List each label, following the requested order.
A. b, d, e, a, c
(b: 5.89, d: 6.30, e: 7.03, a: 7.66, c: 8.40)

====

Each item that follows carries a reported IC50.
Test system: H-ras
assay summary: Inhibition of H-ras prenylation/processing in whole cells (H-ras (61 L) transformed NIH3T3 fibroblasts, Western blot)
Format: cell-based
condition context: Mus musculus; H-ras (61 L) transformed NIH3T3 fibroblasts, 24 h; 50 μM lovastatin as 100% reference

COC(=O)[C@H](CCSC)NC(=O)c1ccc(OC[C@@H](/C=C/[C@@H](N)CS)C(C)C)cc1 [Compound 18] | > 50 µM
COC(=O)[C@H](CCSC)NC(=O)c1cc(OCC[C@@H](C)CS)ccc1C(C)C [Compound 29] | > 50 µM

Next:
Q. Look up IC50 with H-ras for this molecule: COC(=O)[C@H](CCSC)NC(=O)c1ccc(OC/C=C/[C@@H](N)CS)cc1 [Compound 21]
A. > 50 µM
